Answer each item with its documented MIC compounds of the invention alone.
System: K. pneumoniae BAA-1898
run.description: MIC of compound alone, broth microdilution
Assay type: cell-based
study.conditions: strain BAA-1898; compound alone

// MIC compounds of the invention alone value for Cc1cc(C(N)=O)nn1C1=CC2CN(C1)C(=O)N2OS(=O)(=O)[O-].[Na+] (stereo not shown) [Example 23] : >32 µg/mL

// MIC compounds of the invention alone value for O=C(O)C(F)(F)F.O=C1N2CC(n3ccc(CNc4nccs4)n3)=CC(C2)N1OS(=O)(=O)[O-].[Na+] (stereo not shown) [Example 35] : >32 µg/mL

// MIC compounds of the invention alone value for CN(C)C.NC(=O)CCc1nccn1C1=CC2CN(C1)C(=O)N2OS(=O)(=O)O (stereo not shown) [Example 73] : >32 µg/mL

// MIC compounds of the invention alone value for NCc1cnn(C2=CC3CN(C2)C(=O)N3OS(=O)(=O)[O-])c1.O=C(O)C(F)(F)F.[Na+] (stereo not shown) [Example 15] : >32 µg/mL

// MIC compounds of the invention alone value for NCc1ccn(C2=CC3CN(C2)C(=O)N3OS(=O)(=O)[O-])n1.O=C(O)C(F)(F)F.[Na+] (stereo not shown) [Example 49] : >32 µg/mL

// MIC compounds of the invention alone value for NCc1cn(C2=CC3CN(C2)C(=O)N3OS(=O)(=O)[O-])nn1.O=C(O)C(F)(F)F.[Na+] (stereo not shown) [Example 57] : 16 µg/mL

// MIC compounds of the invention alone value for O=C1N2CC(n3cc(S(=O)(=O)NCCO)cn3)=CC(C2)N1OS(=O)(=O)[O-].[Na+] (stereo not shown) [Example 74] : 16 µg/mL
